Known MIC of a selection of compounds
Test system: Candida albicans
Test: Antifungal activity against Candida albicans 901 measured after 24 hrs by micro-broth dilution assay
Assay type: functional
measureName: MIC (µg/mL)

| compound | measureName | inequalitySign | dataValue |
| --- | --- | --- | --- |
| OC(Cn1cncn1)(Cn1cncn1)c1ccc(F)cc1F | MIC | > | 128 |
| Fc1ccc(C(Cn2ccnc2)[Se]Cc2ccc(Br)cc2)c(F)c1 (stereo not given) | MIC | = | 2 |
| Clc1ccc(C(Cn2ccnc2)[Se]Cc2ccccc2Br)c(Cl)c1 (stereo not given) | MIC | = | 1 |
| COc1cc(C[Se]C(Cn2ccnc2)c2ccc(Cl)cc2Cl)cc(OC)c1 (stereo not given) | MIC | = | 4 |
| COc1cc(C[Se]C(Cn2ccnc2)c2ccc(F)cc2F)cc(OC)c1 (stereo not given) | MIC | = | 2 |
| Cc1cccc(C[Se]C(Cn2ccnc2)c2ccc(F)cc2F)c1 (stereo not given) | MIC | = | 4 |
| Fc1ccc(C(Cn2ccnc2)[Se]Cc2ccc(Cl)cc2)c(F)c1 (stereo not given) | MIC | = | 8 |
| Cc1ccc(C[Se]C(Cn2ccnc2)c2ccc(F)cc2F)cc1 (stereo not given) | MIC | = | 1 |
| Cc1ccc(C[Se]C(Cn2ccnc2)c2ccc(Cl)cc2Cl)cc1 (stereo not given) | MIC | = | 64 |
| Cc1cccc(C[Se]C(Cn2ccnc2)c2ccc(Cl)cc2Cl)c1 (stereo not given) | MIC | = | 2 |
| Clc1ccc(C(Cn2ccnc2)[Se]Cc2ccccc2)c(Cl)c1 (stereo not given) | MIC | = | 1 |
| COc1cccc(C[Se]C(Cn2ccnc2)c2ccc(Cl)cc2Cl)c1 (stereo not given) | MIC | = | 1 |
| Fc1ccc(Br)c(C[Se]C(Cn2ccnc2)c2ccc(Cl)cc2Cl)c1 (stereo not given) | MIC | = | 0.25 |
| Clc1ccc(C[Se]C(Cn2ccnc2)c2ccc(Cl)cc2Cl)c(Cl)c1 (stereo not given) | MIC | = | 32 |
| COc1cccc(C[Se]C(Cn2ccnc2)c2ccc(F)cc2F)c1 (stereo not given) | MIC | = | 8 |
| Cc1ccc(C[Se]C(Cn2ccnc2)c2ccc(Cl)cc2Cl)cc1C (stereo not given) | MIC | = | 32 |
| Clc1ccc(C(Cn2ccnc2)[Se]Cc2ccccc2Cl)c(Cl)c1 (stereo not given) | MIC | = | 0.5 |
| Fc1cccc(C[Se]C(Cn2ccnc2)c2ccc(F)cc2F)c1 (stereo not given) | MIC | = | 8 |
| Fc1ccc(C(Cn2ccnc2)[Se]Cc2ccccc2Br)c(F)c1 (stereo not given) | MIC | = | 0.25 |
| Fc1ccc(C[Se]C(Cn2ccnc2)c2ccc(F)cc2F)cc1 (stereo not given) | MIC | = | 4 |

---

Test system: Candida parapsilosis
Experiment: Antifungal activity against Candida parapsilosis ATCC 22019 measured after 24 hrs by micro-broth dilution assay
Assay type: functional
Conditions: Lodderomyces parapsilosis
measureName: MIC

| compound | measureName | dataValue |
| --- | --- | --- |
| Clc1ccc(C[Se]C(Cn2ccnc2)c2ccc(Cl)cc2Cl)c(Cl)c1 (stereo unspecified) | MIC | 2 µg/mL |
| Fc1ccc(C(Cn2ccnc2)[Se]Cc2ccc(Cl)cc2)c(F)c1 (stereo unspecified) | MIC | 0.13 µg/mL |
| COc1cccc(C[Se]C(Cn2ccnc2)c2ccc(F)cc2F)c1 (stereo unspecified) | MIC | 0.5 µg/mL |
| Cc1ccc(C[Se]C(Cn2ccnc2)c2ccc(F)cc2F)cc1 (stereo unspecified) | MIC | 0.25 µg/mL |
| COc1ccc(C[Se]C(Cn2ccnc2)c2ccc(Cl)cc2Cl)cc1 (stereo unspecified) | MIC | 0.5 µg/mL |
| Fc1ccc(C(Cn2ccnc2)[Se]Cc2ccccc2)c(F)c1 (stereo unspecified) | MIC | 0.13 µg/mL |

---

Known selectivity ratio of a selection of compounds
Test: Ratio of hemolysis activity in rabbit RBC to MIC for Candida albicans
Format: toxicity
Details: rabbit red blood cells (RBC)

| compound | selectivity ratio |
| --- | --- |
| Clc1ccc(COC(Cn2ccnc2)c2ccc(Cl)cc2Cl)c(Cl)c1 (stereo not given) [MICONAZOLE] | 8 |
| Clc1ccc(C(Cn2ccnc2)[Se]Cc2ccccc2Cl)c(Cl)c1 (stereo not given) | 256 |
| Fc1ccc(C(Cn2ccnc2)[Se]Cc2ccc(Cl)cc2Cl)c(F)c1 (stereo not given) | 64 |
| Fc1ccc(C(Cn2ccnc2)[Se]Cc2ccccc2Br)c(F)c1 (stereo not given) | 512 |
| Fc1ccc(Br)c(C[Se]C(Cn2ccnc2)c2ccc(Cl)cc2Cl)c1 (stereo not given) | 256 |

---

System: Candida albicans
Test: Antifungal activity against Candida albicans ATCC SC5314 measured after 24 hrs by micro-broth dilution assay
Assay type: functional

| molecule | unitTag | MIC |
| --- | --- | --- |
| Cc1cccc(C[Se]C(Cn2ccnc2)c2ccc(Cl)cc2Cl)c1 (centres undefined) | µg/mL | 0.03 |
| Fc1ccc(C(Cn2ccnc2)[Se]Cc2ccc(Br)cc2)c(F)c1 (centres undefined) | µg/mL | 0.13 |
| Cc1ccc(C[Se]C(Cn2ccnc2)c2ccc(Cl)cc2Cl)cc1C (centres undefined) | µg/mL | 4 |
| Fc1ccc(C(Cn2ccnc2)[Se]Cc2ccc(Cl)cc2)c(F)c1 (centres undefined) | µg/mL | 0.03 |

---

Test system: Candida parapsilosis
Test: Antifungal activity against Candida parapsilosis ATCC 22019 measured after 24 hrs by micro-broth dilution assay
Format: functional
Conditions: Lodderomyces parapsilosis
measureName: log10 of MIC (log10 of the value in µg/mL)

| compound | log10 of MIC |
| --- | --- |
| Cc1cccc(C[Se]C(Cn2ccnc2)c2ccc(Cl)cc2Cl)c1 (stereo not given) | 0.00 |
| COc1cc(C[Se]C(Cn2ccnc2)c2ccc(F)cc2F)cc(OC)c1 (stereo not given) | 0.90 |
| Cc1ccc(C[Se]C(Cn2ccnc2)c2ccc(F)cc2F)cc1C (stereo not given) | 0.00 |
| Clc1ccc(C(Cn2ccnc2)[Se]Cc2ccc(Br)cc2)c(Cl)c1 (stereo not given) | 0.60 |
| Cc1cccc(C[Se]C(Cn2ccnc2)c2ccc(F)cc2F)c1 (stereo not given) | -0.60 |
| Clc1ccc(C(Cn2ccnc2)[Se]Cc2ccccc2Cl)c(Cl)c1 (stereo not given) | -0.89 |
| Fc1cccc(C[Se]C(Cn2ccnc2)c2ccc(Cl)cc2Cl)c1 (stereo not given) | -1.70 |
| Cc1ccc(C[Se]C(Cn2ccnc2)c2ccc(Cl)cc2Cl)cc1 (stereo not given) | 0.00 |
| COc1ccc(C[Se]C(Cn2ccnc2)c2ccc(F)cc2F)cc1 (stereo not given) | -0.60 |
| OC(Cn1cncn1)(Cn1cncn1)c1ccc(F)cc1F [FLUCONAZOLE] | 0.60 |
| Clc1ccc(COC(Cn2ccnc2)c2ccc(Cl)cc2Cl)c(Cl)c1 (stereo not given) [MICONAZOLE] | -0.60 |
| Clc1ccc(C(Cn2ccnc2)[Se]Cc2ccccc2)c(Cl)c1 (stereo not given) | -0.60 |
| Fc1ccc(C(Cn2ccnc2)[Se]Cc2ccccc2Cl)c(F)c1 (stereo not given) | -1.22 |
| Fc1ccc(C(Cn2ccnc2)[Se]Cc2ccc(Cl)cc2Cl)c(F)c1 (stereo not given) | -1.52 |

---

Tested on: Candida albicans
Experiment: Antifungal activity against Candida albicans ATCC SC5314 measured after 24 hrs by micro-broth dilution assay
Type: functional
measureName: MIC (µg/mL)

| compound | measureName | dataValue |
| --- | --- | --- |
| COc1cccc(C[Se]C(Cn2ccnc2)c2ccc(Cl)cc2Cl)c1 (stereo not drawn) | MIC | 0.06 |
| Clc1ccc(C(Cn2ccnc2)[Se]Cc2ccc(Br)cc2)c(Cl)c1 (stereo not drawn) | MIC | 0.06 |
| Clc1ccc(C[Se]C(Cn2ccnc2)c2ccc(Cl)cc2Cl)c(Cl)c1 (stereo not drawn) | MIC | 0.06 |

---

Tested on: Candida albicans
Assay: Antifungal activity against fluconazole-resistant Candida albicans 17 measured after 24 hrs by micro-broth dilution assay
Type: functional
Lab note: cut-off is 8 µg/mL. Strictly less in MIC is true. Exactly 8 µg/mL or more is false.

| compound | class |
| --- | --- |
| COc1cc(C[Se]C(Cn2ccnc2)c2ccc(Cl)cc2Cl)cc(OC)c1 (configuration not stated) | false |
| Fc1ccc(C(Cn2ccnc2)[Se]Cc2ccc(Br)cc2)c(F)c1 (configuration not stated) | true |
| Fc1ccc(C[Se]C(Cn2ccnc2)c2ccc(F)cc2F)cc1 (configuration not stated) | false |
| OC(Cn1cncn1)(Cn1cncn1)c1ccc(F)cc1F | false |
| Clc1ccc(C[Se]C(Cn2ccnc2)c2ccc(Cl)cc2Cl)c(Cl)c1 (configuration not stated) | false |
| Fc1cccc(C[Se]C(Cn2ccnc2)c2ccc(Cl)cc2Cl)c1 (configuration not stated) | true |
| Fc1ccc(Br)c(C[Se]C(Cn2ccnc2)c2ccc(Cl)cc2Cl)c1 (configuration not stated) | true |
| Fc1ccc(C(Cn2ccnc2)[Se]Cc2ccc(Cl)cc2Cl)c(F)c1 (configuration not stated) | true |
| COc1cc(Br)c(C[Se]C(Cn2ccnc2)c2ccc(Cl)cc2Cl)cc1OC (configuration not stated) | false |
| Clc1ccc(C(Cn2ccnc2)[Se]Cc2ccccc2Cl)c(Cl)c1 (configuration not stated) | true |
| Clc1ccc(C(Cn2ccnc2)[Se]Cc2ccccc2)c(Cl)c1 (configuration not stated) | true |
| Fc1ccc(C[Se]C(Cn2ccnc2)c2ccc(Cl)cc2Cl)cc1 (configuration not stated) | true |
| Fc1ccc(C(Cn2ccnc2)[Se]Cc2ccccc2Cl)c(F)c1 (configuration not stated) | true |
| COc1cccc(C[Se]C(Cn2ccnc2)c2ccc(Cl)cc2Cl)c1 (configuration not stated) | true |
| Cc1cccc(C[Se]C(Cn2ccnc2)c2ccc(Cl)cc2Cl)c1 (configuration not stated) | true |

Data provenance is ChEMBL document CHEMBL4765323.
